Test system: GTPase KRas (Homo sapiens), P01116 [G12C]
Sequence (P01116 whole entry G12C): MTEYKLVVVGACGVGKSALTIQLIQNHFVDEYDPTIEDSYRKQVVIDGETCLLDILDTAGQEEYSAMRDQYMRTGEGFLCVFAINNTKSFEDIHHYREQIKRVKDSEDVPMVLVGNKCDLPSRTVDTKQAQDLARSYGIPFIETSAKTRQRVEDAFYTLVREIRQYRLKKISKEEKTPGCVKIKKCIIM
Assay: Binding affinity to GMP-stabilized FLAG-tagged KRAS G12C mutant (unknown origin) assessed as ratio of Kinact to Ki using desthiobiotin-GTP probe by alphascreen assay
Recorded endpoint: Ratio (min⁻¹ µM⁻¹)
Value expressed in min⁻¹ µM⁻¹; do not type the unit.

Ask: GET /values?readout=Ratio&item= `Nc1nc2c(ncn2[C@@H]2O[C@H](COP(=O)(O)CP(=O)(O)OCCNC(=O)CCl)[C@@H](O)[C@H]2O)c(=O)[nH]1`
Result: 0.02

Ask: # lookup: Ratio of `Nc1nc2c(ncn2[C@@H]2O[C@H](COC(=O)CP(=O)(O)OCCNC(=O)CCl)[C@@H](O)[C@H]2O)c(=O)[nH]1`
Result: 0.02

Ask: Please look up its Ratio: Nc1nc2c(ncn2[C@@H]2O[C@H](COP(=O)(O)CP(=O)(O)O[C@@H]3CC[C@H](NC(=O)CCl)C3)[C@@H](O)[C@H]2O)c(=O)[nH]1 (mixture of isomers)
Result: 0.02

Ask: Ratio lookup needed for `Nc1nc2c(ncn2[C@@H]2O[C@H](COP(=O)(O)C(F)(F)P(=O)(O)OCCNC(=O)CCl)[C@@H](O)[C@H]2O)c(=O)[nH]1` , thanks.
Result: 0.9

Ask: Entry `Nc1nc2c(ncn2[C@@H]2O[C@H](COS(=O)(=O)NC(=O)OCCNC(=O)CCl)[C@@H](O)[C@H]2O)c(=O)[nH]1` has what Ratio?
Result: 0.05

Now for a further molecule.
Ask: Look up Ratio for this molecule: Nc1nc2c(ncn2[C@@H]2O[C@H](COP(=O)(O)CP(=O)(O)O[C@@H]3CC[C@@H](NC(=O)CCl)C3)[C@@H](O)[C@H]2O)c(=O)[nH]1 (mixture of isomers)
Result: 0.06

----------
Test system: GTPase KRas (Homo sapiens), P01116 [G12C]
Assay: Binding affinity to recombinant GDP-loaded KRAS G12C mutant (unknown origin) assessed as half life at 115 uM by CPM-probe based fluorescence assay
In this section, each of the compounds is paired with its reported log10 of T1/2.
Scale type: logarithmic (base 10). Underlying T1/2 unit: h.

Ask: Observed log10 of T1/2 on GTPase KRas (Homo sapiens), P01116 [G12C] for `C=CC(=O)NCCOP(=O)(O)OP(=O)(O)OC[C@H]1O[C@@H](n2cnc3c(=O)[nH]c(N)nc32)[C@H](O)[C@@H]1O` , please.
Result: -0.22

Ask: Quick check: log10 of T1/2 on GTPase KRas (Homo sapiens), P01116 [G12C], item `Nc1nc2c(ncn2[C@@H]2O[C@H](COP(=O)(O)CC(=O)OCCNC(=O)CCl)[C@@H](O)[C@H]2O)c(=O)[nH]1` ?
Result: 1.92

Ask: Record lookup: for GTPase KRas (Homo sapiens), P01116 [G12C], what log10 of T1/2 belongs to Nc1nc2c(ncn2[C@@H]2O[C@H](COP(=O)(O)CP(=O)(O)O[C@@H]3CC[C@@H](NC(=O)CCl)C3)[C@@H](O)[C@H]2O)c(=O)[nH]1 (mixture of isomers) ?
Result: 1.81

Ask: Lookup: log10 of T1/2 / GTPase KRas (Homo sapiens), P01116 [G12C] / `CC(C)(CNC(=O)CCl)COP(=O)(O)CP(=O)(O)OC[C@H]1O[C@@H](n2cnc3c(=O)[nH]c(N)nc32)[C@H](O)[C@@H]1O`
Result: 1.30

Ask: Give recorded log10 of T1/2 with GTPase KRas (Homo sapiens), P01116 [G12C] for the following compound: Nc1nc2c(ncn2[C@@H]2O[C@H](COP(=O)(O)CP(=O)(O)OC3CCN(C(=O)CCl)C3)[C@@H](O)[C@H]2O)c(=O)[nH]1 (stereo partly specified)
Result: 0.04

Here is another compound to look at.
Ask: Recall the recorded log10 of T1/2 for `Nc1nc2c(ncn2[C@@H]2O[C@H](COP(=O)(O)C(F)(F)P(=O)(O)OCCNC(=O)CCl)[C@@H](O)[C@H]2O)c(=O)[nH]1` with GTPase KRas (Homo sapiens), P01116 [G12C] and state it.
Result: 0.62

----------
System: GTPase KRas (Homo sapiens), P01116 [G12C]
Test: Binding affinity to GMP-stabilized FLAG-tagged KRAS G12C mutant (unknown origin) assessed as inactivation constant using desthiobiotin-GTP probe by alphascreen assay
compounds and their reported log10(Kinact)
Would you kindly interpret these values as log10 of Kinact expressed in min⁻¹?

Sample answers from the record:
Ask: Param item = Nc1nc2c(ncn2[C@@H]2O[C@H](COP(=O)(O)C(F)P(=O)(O)OCCNC(=O)CCl)[C@@H](O)[C@H]2O)c(=O)[nH]1 (mixture of isomers) ; retrieve measured log10(Kinact).
Result: -0.68

Ask: For the compound Nc1nc2c(ncn2[C@@H]2O[C@H](COP(=O)(O)CP(=O)(O)OC3CCCN(C(=O)CCl)C3)[C@@H](O)[C@H]2O)c(=O)[nH]1 (mixture of isomers) , what log10(Kinact) is on record?
Result: -0.26

Ask: Please look up its log10(Kinact): `Nc1nc2c(ncn2[C@@H]2O[C@H](COP(=O)(O)C(F)(F)P(=O)(O)OCCNC(=O)CCl)[C@@H](O)[C@H]2O)c(=O)[nH]1`
Result: -0.44

Ask: Value lookup for log10(Kinact); key = Nc1nc2c(ncn2[C@@H]2O[C@H](COP(=O)(O)CP(=O)(O)O[C@@H]3CC[C@@H](NC(=O)CCl)C3)[C@@H](O)[C@H]2O)c(=O)[nH]1 (mixture of isomers)
Result: 0.36

Ask: Endpoint output: log10(Kinact) of `Nc1nc2c(ncn2[C@@H]2O[C@H](COP(=O)(O)OP(=O)(O)OCCNC(=O)CCl)[C@@H](O)[C@H]2O)c(=O)[nH]1` . Value?
Result: -0.07

Ask: Tell me the measured log10(Kinact) of Nc1nc2c(ncn2[C@@H]2O[C@H](COP(=O)(O)CP(=O)(O)O[C@@H]3CC[C@H](NC(=O)CCl)C3)[C@@H](O)[C@H]2O)c(=O)[nH]1 (mixture of isomers) , please.
Result: 0.00

Ask: Which value of log10(Kinact) has been reported for `Nc1nc2c(ncn2[C@@H]2O[C@H](COP(=O)(O)C(F)(F)P(=O)(O)OCCCNC(=O)CCl)[C@@H](O)[C@H]2O)c(=O)[nH]1` in the records?
Result: -0.52

Ask: Would you mind telling me what log10(Kinact) value was observed for `Nc1nc2c(ncn2[C@@H]2O[C@H](COC(=O)CP(=O)(O)OCCNC(=O)CCl)[C@@H](O)[C@H]2O)c(=O)[nH]1` ?
Result: -1.28

Ask: Record request: log10(Kinact) value, item Nc1nc2c(ncn2[C@@H]2O[C@H](COP(=O)(O)CP(=O)(O)OC3CCN(C(=O)CCl)C3)[C@@H](O)[C@H]2O)c(=O)[nH]1 (stereo partly drawn)
Result: 0.34

Ask: So what does the record say about log10(Kinact) for `Nc1nc2c(ncn2[C@@H]2O[C@H](COP(=O)(O)CC(=O)OCCNC(=O)CCl)[C@@H](O)[C@H]2O)c(=O)[nH]1` ?
Result: -1.26

***
Ask: Please look up its log10(Kinact): `Nc1nc2c(ncn2[C@@H]2O[C@H](COP(=O)(O)CS(=O)(=O)NCCNC(=O)CCl)[C@@H](O)[C@H]2O)c(=O)[nH]1`
Result: -0.48

Ask: Returns the measured log10(Kinact) for the input compound. Input: `Nc1nc2c(ncn2[C@@H]2O[C@H](COP(=O)(O)CP(=O)(O)OCCNC(=O)CCl)[C@@H](O)[C@H]2O)c(=O)[nH]1`
Result: -1.22

Ask: Entry under review: `Nc1nc2c(ncn2[C@@H]2O[C@H](COS(=O)(=O)NC(=O)OCCNC(=O)CCl)[C@@H](O)[C@H]2O)c(=O)[nH]1` . Reported log10(Kinact)?
Result: -0.62

----------
Biological target: GTPase KRas (Homo sapiens, UniProt P01116, G12C)
Sequence (P01116 whole entry G12C): as above
Assay: Binding affinity to GMP-stabilized FLAG-tagged KRAS G12C mutant (unknown origin) using desthiobiotin-GTP probe by alphascreen assay
pKi: −log10 of the molar value.
Quick rule for you: pKi at 6 or higher means Fulfilled, lower means Not fulfilled.

Worked examples follow.
Ask: Check this compound for pKi at or above 6: `Nc1nc2c(ncn2[C@@H]2O[C@H](COP(=O)(O)OP(=O)(O)OCCNC(=O)CCl)[C@@H](O)[C@H]2O)c(=O)[nH]1`
Result: Fulfilled

Ask: # bool: pKi of `CC(C)(CNC(=O)CCl)COP(=O)(O)CP(=O)(O)OC[C@H]1O[C@@H](n2cnc3c(=O)[nH]c(N)nc32)[C@H](O)[C@@H]1O` >= 6
Result: Not fulfilled

Ask: pKi >= 6 for Nc1nc2c(ncn2[C@@H]2O[C@H](COP(=O)(O)CP(=O)(O)O[C@@H]3CC[C@H](NC(=O)CCl)C3)[C@@H](O)[C@H]2O)c(=O)[nH]1 (mixture of isomers) ?
Result: Not fulfilled

Ask: Threshold query (pKi >= 6) on `COC(=O)/C=C/CCCOP(=O)(O)CP(=O)(O)OC[C@H]1O[C@@H](n2cnc3c(=O)[nH]c(N)nc32)[C@H](O)[C@@H]1O`
Result: Not fulfilled

Ask: # bool: pKi of `Nc1nc2c(ncn2[C@@H]2O[C@H](COP(=O)(O)C(F)(F)P(=O)(O)OCCNC(=O)CCl)[C@@H](O)[C@H]2O)c(=O)[nH]1` >= 6
Result: Fulfilled

Please turn your attention to the following entry.
Ask: Confirm if pKi reported for the compound `Nc1nc2c(ncn2[C@@H]2O[C@H](COC(=O)CP(=O)(O)OCCNC(=O)CCl)[C@@H](O)[C@H]2O)c(=O)[nH]1` is 6 or above.
Result: Not fulfilled
